Tested on: Eleusine indica (ELEIN)
Experiment: Post-emergence efficacy, glasshouse spray test
Type: in vivo
Conditions: Eleusine indica, post-emergence, 312 h; application rate 1000 g/Ha; evaluated after 13 days; read-out: Control of weed species ELEIN after post-emergence application (100=total damage to plant; 0=no damage to plant)
Measured Attribute: pest or weed control at 1000 g/ha

| Compound | Measured Attribute | Experimental Value |
| --- | --- | --- |
| COC(=O)C[n+]1ccc2ccccc2n1 [Compound A1] | pest or weed control at 1000 g/ha | 100% |
| Cc1c[n+](CCS(=O)(=O)[O-])nc2ccccc12 [Compound A11] | pest or weed control at 1000 g/ha | 80% |
| COc1ccc2n[n+](CCS(=O)(=O)[O-])ccc2c1 [Compound A37] | pest or weed control at 1000 g/ha | 60% |
| COc1ccc2n[n+](CC(=O)[O-])ccc2c1 [Compound A68] | pest or weed control at 1000 g/ha | 20% |
| O=S(=O)([O-])CCCC[n+]1ccc2ccccc2n1 [Compound A25] | pest or weed control at 1000 g/ha | 60% |

====

Tested on: Amaranthus palmeri (AMAPA)
Experiment: Post-emergence efficacy, glasshouse spray test
Type: in vivo
Settings: Amaranthus palmeri, post-emergence, 312 h; application rate 1000 g/Ha; evaluated after 13 days; read-out: Control of weed species AMAPA after post-emergence application (100=total damage to plant; 0=no damage to plant)
Measured Attribute: pest or weed control at 1000 g/ha (%)

| Compound | Experimental System | Measured Attribute | Unit Tag | Experimental Value |
| --- | --- | --- | --- | --- |
| Cc1cc2ccccc2n[n+]1CCS(=O)(=O)[O-] | Amaranthus palmeri (AMAPA) | pest or weed control at 1000 g/ha | % | 100 |
| C[C@H](C[n+]1ccc2ccccc2n1)NS(=O)(=O)[O-] | Amaranthus palmeri (AMAPA) | pest or weed control at 1000 g/ha | % | 100 |
| Cc1cc(C)c2n[n+](CCO)cc(C)c2c1 | Amaranthus palmeri (AMAPA) | pest or weed control at 1000 g/ha | % | 30 |
| N[C@H](CC[n+]1ccc2ccccc2n1)C(=O)O [Compound A12, 2,2,2-trifluoroacetate] | Amaranthus palmeri (AMAPA) | pest or weed control at 1000 g/ha | % | 80 |
| Cc1cc2ccccc2n[n+]1CCOS(=O)(=O)[O-] | Amaranthus palmeri (AMAPA) | pest or weed control at 1000 g/ha | % | 100 |
| O=S(=O)([O-])CC[n+]1ccc2ccc(C(F)(F)F)cc2n1 | Amaranthus palmeri (AMAPA) | pest or weed control at 1000 g/ha | % | 0 |
| O=S(=O)([O-])CC[n+]1ccc2cc(Cl)ccc2n1 | Amaranthus palmeri (AMAPA) | pest or weed control at 1000 g/ha | % | 70 |
| O=S(=O)([N-]CC[n+]1ccc2ccccc2n1)C(F)(F)F | Amaranthus palmeri (AMAPA) | pest or weed control at 1000 g/ha | % | 10 |
| COc1ccc2n[n+](CC(=O)[O-])ccc2c1 | Amaranthus palmeri (AMAPA) | pest or weed control at 1000 g/ha | % | 60 |
| O=S(=O)([O-])CC[n+]1ccc2cccc(-c3ccccc3)c2n1 | Amaranthus palmeri (AMAPA) | pest or weed control at 1000 g/ha | % | 100 |
| COC(=O)C[n+]1ccc2cccc(C)c2n1 | Amaranthus palmeri (AMAPA) | pest or weed control at 1000 g/ha | % | 0 |
| CC(CC[n+]1ccc2ccccc2n1)S(=O)(=O)[O-] (stereo not drawn) [Compound A43, 4-cinnolin-2-ium-2-ylbutane-2-sulfonate] | Amaranthus palmeri (AMAPA) | pest or weed control at 1000 g/ha | % | 100 |
| O=C(O)c1ccccc1C[n+]1ccc2ccccc2n1 | Amaranthus palmeri (AMAPA) | pest or weed control at 1000 g/ha | % | 10 |
| O=S(=O)(O)CC[n+]1ccc2cc(-c3ccccc3)ccc2n1 | Amaranthus palmeri (AMAPA) | pest or weed control at 1000 g/ha | % | 10 |
| CS(=O)(=O)[N-]C(=O)CCC[n+]1ccc2ccccc2n1 | Amaranthus palmeri (AMAPA) | pest or weed control at 1000 g/ha | % | 70 |
| O=S(=O)([O-])CCCC[n+]1ccc2ccccc2n1 | Amaranthus palmeri (AMAPA) | pest or weed control at 1000 g/ha | % | 50 |
| O=S(=O)([O-])CC[n+]1ccc2c(Cl)cccc2n1 | Amaranthus palmeri (AMAPA) | pest or weed control at 1000 g/ha | % | 70 |
| Cc1cc(C)c2n[n+](CC(=O)OC(C)C)cc(C)c2c1 | Amaranthus palmeri (AMAPA) | pest or weed control at 1000 g/ha | % | 40 |
| O=S(=O)(O)CC[n+]1cc(C2CC2)c2ccccc2n1 | Amaranthus palmeri (AMAPA) | pest or weed control at 1000 g/ha | % | 60 |
| COC(=O)C[n+]1ccc2cc(OC)ccc2n1 | Amaranthus palmeri (AMAPA) | pest or weed control at 1000 g/ha | % | 0 |
| O=P([O-])(O)CC[n+]1ccc2ccccc2n1 | Amaranthus palmeri (AMAPA) | pest or weed control at 1000 g/ha | % | 70 |
| Cc1cc2ccccc2n[n+]1CCCS(=O)(=O)[O-] | Amaranthus palmeri (AMAPA) | pest or weed control at 1000 g/ha | % | 60 |
| COC(=O)CCC[n+]1ccc2ccccc2n1 [Compound A16, 2,2,2-trifluoroacetate] | Amaranthus palmeri (AMAPA) | pest or weed control at 1000 g/ha | % | 50 |
| O=P(O)(O)CCC[n+]1ccc2ccccc2n1 | Amaranthus palmeri (AMAPA) | pest or weed control at 1000 g/ha | % | 80 |
| COC(=O)C[n+]1ccc2cc(C)ccc2n1 | Amaranthus palmeri (AMAPA) | pest or weed control at 1000 g/ha | % | 70 |
| Cc1cc(C)c2n[n+](CC(=O)[O-])cc(C)c2c1 | Amaranthus palmeri (AMAPA) | pest or weed control at 1000 g/ha | % | 40 |
| O=S(=O)([O-])CC[n+]1ccc2cc(F)ccc2n1 | Amaranthus palmeri (AMAPA) | pest or weed control at 1000 g/ha | % | 90 |
| C[C@H](CNS(=O)(=O)[O-])[n+]1ccc2ccccc2n1 | Amaranthus palmeri (AMAPA) | pest or weed control at 1000 g/ha | % | 100 |
| Cc1cccc2cc[n+](CC(=O)O)nc12 | Amaranthus palmeri (AMAPA) | pest or weed control at 1000 g/ha | % | 30 |
| C[C@@H](C[n+]1ccc2ccccc2n1)NS(=O)(=O)[O-] | Amaranthus palmeri (AMAPA) | pest or weed control at 1000 g/ha | % | 100 |
| COC(=O)CC[n+]1ccc2ccccc2n1 | Amaranthus palmeri (AMAPA) | pest or weed control at 1000 g/ha | % | 70 |
| O=C(O)CC[n+]1ccc2ccccc2n1 | Amaranthus palmeri (AMAPA) | pest or weed control at 1000 g/ha | % | 80 |
| Cc1ccc2n[n+](CC(=O)[O-])ccc2c1 | Amaranthus palmeri (AMAPA) | pest or weed control at 1000 g/ha | % | 30 |
| O=S(=O)([O-])CC[n+]1ccc2ccc(Cl)cc2n1 | Amaranthus palmeri (AMAPA) | pest or weed control at 1000 g/ha | % | 100 |
| COC(=O)C[n+]1cc(C)c2ccccc2n1 | Amaranthus palmeri (AMAPA) | pest or weed control at 1000 g/ha | % | 70 |
| O=S(=O)([O-])OCCC[n+]1ccc2ccccc2n1 | Amaranthus palmeri (AMAPA) | pest or weed control at 1000 g/ha | % | 100 |
| N[C@@H](C[n+]1ccc2ccccc2n1)C(=O)[O-] [Compound A23, 2,2,2-trifluoroacetate] | Amaranthus palmeri (AMAPA) | pest or weed control at 1000 g/ha | % | 60 |
| O=S(=O)([O-])CC[n+]1ccc2ccccc2n1 [Compound A24, 2-cinnolin-2-ium-2-ylethanesulfonate] | Amaranthus palmeri (AMAPA) | pest or weed control at 1000 g/ha | % | 60 |
| Cc1c[n+](CCO)nc2ccccc12 | Amaranthus palmeri (AMAPA) | pest or weed control at 1000 g/ha | % | 10 |

====

Tested on: Eleusine indica (ELEIN)
Experiment: Post-emergence efficacy, glasshouse spray test
Format: in vivo
Details: Eleusine indica, post-emergence, 312 h; application rate 1000 g/Ha; evaluated after 13 days; read-out: Control of weed species ELEIN after post-emergence application (100=total damage to plant; 0=no damage to plant)
// classify: if (pest or weed control at 1000 g/ha < 20%) 1 else -1

| Structure As Smiles | Experimental System | Group |
| --- | --- | --- |
| O=S(=O)([O-])CC[n+]1ccc2cccc(-c3ccccc3)c2n1 | Eleusine indica (ELEIN) | -1 |
| O=S(=O)([O-])N1CCC[C@H]1C[n+]1ccc2ccccc2n1 | Eleusine indica (ELEIN) | -1 |
| O=S(=O)(O)CC[n+]1cc(C2CC2)c2ccccc2n1 | Eleusine indica (ELEIN) | 1 |
| O=S(=O)(O)c1ccc(C[n+]2ccc3ccccc3n2)cc1 | Eleusine indica (ELEIN) | -1 |
| COc1ccc2cc[n+](CCS(=O)(=O)[O-])nc2c1 | Eleusine indica (ELEIN) | -1 |
| Cc1cc(C)c2n[n+](CC(=O)OC(C)C)cc(C)c2c1 | Eleusine indica (ELEIN) | -1 |
| Cc1ccc2n[n+](CC(=O)[O-])ccc2c1 | Eleusine indica (ELEIN) | -1 |
| O=S(=O)([O-])CC[n+]1ccc2cccc(C(F)(F)F)c2n1 | Eleusine indica (ELEIN) | 1 |
| C[C@H](C[n+]1ccc2ccccc2n1)NS(=O)(=O)[O-] | Eleusine indica (ELEIN) | -1 |
| COc1cccc2cc[n+](CCS(=O)(=O)[O-])nc12 | Eleusine indica (ELEIN) | -1 |
